Measured on: Small ubiquitin-related modifier 1 (Homo sapiens)
Test name: Inhibition of SUMO1 in human MDA-MB-231 cells assessed as reduction in SUMOylation level at 10 uM measured after 24 hrs by western blot analysis
Assay type: cell-based
Calls of active or inactive are those of the source. The calls are words filed in the database; no cut-off is given here.
Outcomes: active, inactive

{"columns": ["Smi", "Cat"],
 "data": [
  ["CCCCCCCCCCCCCc1cccc(O)c1C(=O)O", "active"],
  ["CCCCCCCCCCCCCc1cccc(C(=O)O)c1O", "inactive"],
  ["CCCCCCCCCCCc1cccc(O)c1C(=O)O", "active"],
  ["CCCCCCCCC/C=C/c1cccc(O)c1C(=O)O", "active"],
  ["CCCCCCCCCCC/C=C/c1cccc(O)c1C(=O)O", "active"]
]}

###

Measured on: Small ubiquitin-related modifier 1 (Homo sapiens)
Test name: Inhibition of SUMO1 (unknown origin) assessed as reduction in SUMOylated RanGAP1 level at 50 uM incubated for 60 mins by western blot analysis
Activity calls are given as the source filed them. No cut-off for these calls is given here.

{"columns": ["Smi", "inhibition"],
 "data": [
  ["CCCCCCCCCCC/C=C/c1cccc(O)c1C(=O)O", "Active"],
  ["CCCCCCCCCCCc1ccc(C(=O)O)c(O)c1", "inactive"],
  ["CCCCCCc1cccc(O)c1C(=O)O", "inactive"],
  ["CCCCCCCCCCCCCc1ccc(O)c(C(=O)O)c1", "inactive"],
  ["CCCCCCCCCCCCCCCc1ccc(C(=O)O)c(O)c1", "inactive"],
  ["CCCCCCCCCCCCCc1ccc(C(=O)O)c(O)c1", "inactive"],
  ["CCCCCCCCCCC/C=C/c1cccc(C(=O)O)c1O", "inactive"],
  ["CCCCCCCCC/C=C/c1cccc(C(=O)O)c1O", "inactive"],
  ["CCCCCCCCCCCc1ccc(O)c(C(=O)O)c1", "inactive"],
  ["CCCCCCCCCCCCC/C=C/c1ccc(O)c(C(=O)O)c1", "inactive"],
  ["CCCCCCCCCCCCCCCc1ccc(O)c(C(=O)O)c1", "inactive"],
  ["CCCCCCCCCCCCC/C=C/c1cccc(C(=O)O)c1O", "inactive"],
  ["CCCCCCCCCCCCCc1cccc(O)c1C(=O)O", "Active"]
]}

###

Measured on: Small ubiquitin-related modifier 1 (Homo sapiens)
Test name: Inhibition of SUMO1 in human PC3 cells assessed as reduction in SUMOylation level at 10 to 20 uM measured after 24 hrs by western blot analysis
Type: cell-based
Applied conditions: PC-3, dose microM 10-20, time 24.0 hrs
Activity calls are given as the source filed them. The calls are words filed in the database; no cut-off is given here.
Outcomes: yes (1) for active, no (0) for inactive

{"columns": ["Smi", "Cat"],
 "data": [
  ["CCCCCCCCCCCCCc1cccc(C(=O)O)c1O", "no (0)"],
  ["CCCCCCCCCCCCCc1cccc(O)c1C(=O)O", "yes (1)"],
  ["CCCCCCCCCCC/C=C/c1cccc(O)c1C(=O)O", "yes (1)"],
  ["CCCCCCCCC/C=C/c1cccc(O)c1C(=O)O", "yes (1)"],
  ["CCCCCCCCCCCc1cccc(O)c1C(=O)O", "yes (1)"]
]}

###

System: PC-3
Test name: Induction of autophagy in human PC3 cells assessed as increased of LC3-II level at 10 uM incubated for 24 hrs by Western blot analysis
Assay type: functional, cell-based
Active and inactive are the calls of the source. No cut-off for these calls is given here.
Outcomes: label 1 (active), label 0 (inactive)

{"columns": ["Smi", "Cat"],
 "data": [
  ["CCCCCCCCC/C=C/c1cccc(O)c1C(=O)O", "label 1"],
  ["CCCCCCCCCCCCCc1cccc(C(=O)O)c1O", "label 0"],
  ["CCCCCCCCCCCCCc1cccc(O)c1C(=O)O", "label 1"],
  ["CCCCCCCCCCC/C=C/c1cccc(O)c1C(=O)O", "label 1"],
  ["CCCCCCCCCCCc1cccc(O)c1C(=O)O", "label 1"]
]}

###

System: PC-3
Test name: Induction of autophagy-mediated apoptosis in human PC3 cells assessed as increase in cleave PARP level at 10 uM measured after 24 hrs by western blot analysis
Type: functional, cell-based
Activity calls are given as the source filed them. The rule behind the calls is not given here.
Outcomes: active, inactive

{"columns": ["Smi", "Cat"],
 "data": [
  ["CCCCCCCCCCCCCc1cccc(C(=O)O)c1O", "inactive"],
  ["CCCCCCCCCCCCCc1cccc(O)c1C(=O)O", "active"],
  ["CCCCCCCCCCC/C=C/c1cccc(O)c1C(=O)O", "active"],
  ["CCCCCCCCCCCc1cccc(O)c1C(=O)O", "active"],
  ["CCCCCCCCC/C=C/c1cccc(O)c1C(=O)O", "active"]
]}

###

Measured on: Small ubiquitin-related modifier 1 (Homo sapiens)
Test name: Inhibition of SUMO1 (unknown origin) assessed as reduction in SUMOylated RanGAP1 level at 50 uM incubated for 60 mins by western blot analysis
Activity calls are given as the source filed them. The calls are words filed in the database; no cut-off is given here.
Outcomes: TRUE for active, FALSE for inactive

{"columns": ["Smi", "Cat"],
 "data": [
  ["CCCCCCCCCCCCCCCc1cccc(O)c1C(=O)O", "TRUE"],
  ["CCCCCCCCC/C=C/c1cccc(O)c1C(=O)O", "TRUE"],
  ["CCCCCCCCCCCc1cccc(O)c1C(=O)O", "TRUE"],
  ["CCCCCCCCCCCc1cccc(C(=O)O)c1O", "FALSE"],
  ["CCCCCCCCC/C=C/c1ccc(O)c(C(=O)O)c1", "FALSE"],
  ["CCCCCCCCc1cccc(O)c1C(=O)O", "FALSE"],
  ["CCCCCCCCCCCCCc1cccc(C(=O)O)c1O", "FALSE"]
]}

###

# IC50 values compiled below
Tested on: MDA-MB-231
Test name: Cytotoxicity against human MDA-MB-231 cells assessed as reduction in cell viability incubated for 48 hrs by crystal violet staining based spectrophotometric analysis
Assay type: functional
Applied conditions: MDA-MB-231, 48 h

{"columns": ["Smi", "IC50 (µM)"],
 "data": [
  ["CCCCCCCCCCC/C=C/c1cccc(O)c1C(=O)O", 8.2],
  ["CCCCCCCCCCCCCc1cccc(C(=O)O)c1O", 12.8]
]}
